Target: Paired box protein Pax-6 (Homo sapiens) (UniProt P26367)
Sequence (P26367 whole entry, looked up): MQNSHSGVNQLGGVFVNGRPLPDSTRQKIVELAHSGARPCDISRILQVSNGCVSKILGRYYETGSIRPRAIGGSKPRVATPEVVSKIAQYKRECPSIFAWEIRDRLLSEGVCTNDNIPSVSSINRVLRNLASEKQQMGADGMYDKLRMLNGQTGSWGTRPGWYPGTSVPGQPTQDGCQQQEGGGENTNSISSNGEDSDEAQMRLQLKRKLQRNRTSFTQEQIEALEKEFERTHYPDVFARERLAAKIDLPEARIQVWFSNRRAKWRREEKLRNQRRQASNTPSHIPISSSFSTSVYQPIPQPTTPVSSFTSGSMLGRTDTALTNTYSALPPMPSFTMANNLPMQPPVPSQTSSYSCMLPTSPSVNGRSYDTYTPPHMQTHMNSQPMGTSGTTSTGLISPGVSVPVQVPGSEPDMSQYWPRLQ
Test: ATG_Pax6_CIS: Attagene CIS-FACTORIAL HepG2 Assay for human Paired Box 6 (PAX6) (AID 2282956)
Settings: HepG2 CIS-FACTORIAL PAX6 reporter transcription, RNA readout; actives raise or lower the signal
Description: ATG_CIS is a cell-based, multiplexed-readout assay that uses HepG2, a human liver cell line, with measurements taken at 24 hours after chemical dosing in a 24-well plate.ATG_Pax6_CIS is one of 52 assay component(s) measured or calculated from the ATG_CIS assay. […] This assay endpoint, ATG_Pax6_CIS, was analyzed with bidirectional fitting relative to DMSO as the negative control and baseline of activity. […]
Calls of active or inactive are those of the source. The calls were made as follows: active = hit-call score of the fitted dose curve at least 0.9, where 1 is the maximum; inactive = score below 0.9.
PARAMETER_MEASURED: AC50

MOLECULE: CC1(C)C(C(=O)OC(C#N)c2cccc(Oc3ccccc3)c2)C1(C)C (configuration not stated)
PARAMETER_MEASURED: AC50
RESULT: inactive
//
MOLECULE: CC(C)C1(C)N=C(c2ncccc2C(=O)O)NC1=O (configuration not stated)
PARAMETER_MEASURED: AC50
RESULT: inactive
//
MOLECULE: COCC(=O)N(c1c(C)cccc1C)C(C)C(=O)OC (configuration not stated)
PARAMETER_MEASURED: AC50
RESULT: inactive
//
MOLECULE: COc1cc(OC)nc(NC(=O)NS(=O)(=O)c2ncccc2OCC(F)(F)F)n1
PARAMETER_MEASURED: AC50
RESULT: inactive
//
MOLECULE: COC(=O)N(C(=O)N1CO[C@@]2(C(=O)OC)Cc3cc(Cl)ccc3C2=N1)c1ccc(OC(F)(F)F)cc1
PARAMETER_MEASURED: AC50
RESULT: inactive
//
MOLECULE: CCCN(CC)CC1COC2(CCC(C(C)(C)C)CC2)O1 (configuration not stated)
PARAMETER_MEASURED: AC50
RESULT: 21.9 µM (active)
//
MOLECULE: N#Cc1c(Cl)cccc1Cl
PARAMETER_MEASURED: AC50
RESULT: inactive
//
MOLECULE: CC1(C)CON(Cc2ccccc2Cl)C1=O
PARAMETER_MEASURED: AC50
RESULT: inactive
//
MOLECULE: Cn1c(-c2ccccc2)cc(-c2ccccc2)[n+]1C
PARAMETER_MEASURED: AC50
RESULT: inactive
//
MOLECULE: CC(C)Oc1cccc(NC(=O)c2ccccc2C(F)(F)F)c1
PARAMETER_MEASURED: AC50
RESULT: inactive
//
MOLECULE: CCOP(=O)(OCC)Oc1nc(Cl)c(Cl)cc1Cl
PARAMETER_MEASURED: AC50
RESULT: inactive
//
MOLECULE: CCCCC(O)(Cn1cncn1)c1ccc(Cl)cc1Cl (configuration not stated)
PARAMETER_MEASURED: AC50
RESULT: 31 µM (active)

---

Molecular target: human CYP1A1, CYP1A1 (gene 1543) (UniProt P04798)
Sequence (P04798 whole entry, looked up): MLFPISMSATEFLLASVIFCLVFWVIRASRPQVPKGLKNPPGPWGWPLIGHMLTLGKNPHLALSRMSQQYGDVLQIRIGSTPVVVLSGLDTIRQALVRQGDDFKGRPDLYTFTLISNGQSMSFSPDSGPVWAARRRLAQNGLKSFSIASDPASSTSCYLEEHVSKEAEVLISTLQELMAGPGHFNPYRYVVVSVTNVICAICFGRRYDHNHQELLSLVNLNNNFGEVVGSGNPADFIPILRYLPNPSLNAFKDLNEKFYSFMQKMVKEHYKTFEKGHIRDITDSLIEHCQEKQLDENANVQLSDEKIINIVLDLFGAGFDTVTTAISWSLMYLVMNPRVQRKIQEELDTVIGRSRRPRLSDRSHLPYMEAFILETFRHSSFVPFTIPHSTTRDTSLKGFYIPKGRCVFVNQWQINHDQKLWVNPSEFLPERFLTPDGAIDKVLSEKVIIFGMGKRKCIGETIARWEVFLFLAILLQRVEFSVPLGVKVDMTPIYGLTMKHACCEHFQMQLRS
Experiment: NVS_ADME_hCYP1A1: NovaScreen (NVS) CYP450-related Enzyme Activity (ADME) Assay for human CYP1A1 (AID 2283100)
Records with an inconclusive call do not appear. Calls of active or inactive are those of the source. The calls were made as follows: active = hit-call score of the fitted dose curve at least 0.9, where 1 is the maximum; inconclusive = response in the unintended direction; inactive = score below 0.9.

MOLECULE: CCNP(=S)(OC)O/C(C)=C/C(=O)OC(C)C (centres undefined)
AC50: 2.43 µM (active)

MOLECULE: CCCCC(C#N)(Cn1cncn1)c1ccc(Cl)cc1 (centres undefined)
AC50: 10.4 µM (active)

MOLECULE: CC(C)NC(=O)N1CC(=O)N(c2cc(Cl)cc(Cl)c2)C1=O
AC50: 5.48 µM (active)

MOLECULE: COP(=S)(OC)SCn1nnc2ccccc2c1=O
AC50: 0.363 µM (active)

---

Assay: CCTE_Shafer_MEA_acute_spike_number: CCTE's Neural Acute Assay for Total Number of Spikes, Shafer Lab (AID 2284008)
Active and inactive are the calls of the source. Rule for the calls: active = hit-call score of the fitted dose curve at least 0.9, where 1 is the maximum; inactive = score below 0.9.
Outcome codes: active, inactive

COMPOUND: C=C(C)CN(CC)c1c([N+](=O)[O-])cc(C(F)(F)F)cc1[N+](=O)[O-]
ASSIGNED_CLASS: active

COMPOUND: Cc1ccc(N=CN(C)C=Nc2ccc(C)cc2C)c(C)c1
ASSIGNED_CLASS: active

COMPOUND: COP(=S)(OC)SCn1nnc2ccccc2c1=O
ASSIGNED_CLASS: inactive

COMPOUND: CO/N=C(/C1=NOCCO1)c1ccccc1Oc1ncnc(Oc2ccccc2Cl)c1F
ASSIGNED_CLASS: active

COMPOUND: CCCCC(O)(Cn1cncn1)c1ccc(Cl)cc1Cl (stereo unspecified)
ASSIGNED_CLASS: inactive

COMPOUND: CC(C)=CC1C(C(=O)OCc2coc(Cc3ccccc3)c2)C1(C)C (stereo unspecified)
ASSIGNED_CLASS: inactive

COMPOUND: COC(=O)N(C(=O)N1CO[C@@]2(C(=O)OC)Cc3cc(Cl)ccc3C2=N1)c1ccc(OC(F)(F)F)cc1
ASSIGNED_CLASS: active

COMPOUND: CCOc1nc(F)cc2nc(S(=O)(=O)Nc3c(Cl)cccc3Cl)nn12
ASSIGNED_CLASS: inactive

COMPOUND: CN/C(=N\[N+](=O)[O-])NCc1cnc(Cl)s1
ASSIGNED_CLASS: inactive

COMPOUND: CCOc1cc(C(C)(C)C)ccc1C1COC(c2c(F)cccc2F)=N1 (stereo unspecified)
ASSIGNED_CLASS: active

COMPOUND: OC(c1ccc(Cl)cc1)(c1ccc(Cl)cc1)C(Cl)(Cl)Cl
ASSIGNED_CLASS: active

---

Read-out: Vascular cell adhesion molecule 1 (VCAM1), VCAM1 (gene 7412)
Assay: BSK_hDFCGF_VCAM1: BioMAP Diversity Plus: hDFCGF Assay for Vascular cell adhesion molecule 1 (VCAM1) Biomarker Activity (AID 2283065)
Details: primary human foreskin fibroblasts; actives raise or lower the signal
Calls of active or inactive are those of the source. The calls were made as follows: active = hit-call score of the fitted dose curve at least 0.9, where 1 is the maximum; inactive = score below 0.9.
Classes used: T (active), F (inactive)

MOLECULE: CN=C=S
ASSIGNED_CLASS: F

MOLECULE: CCOP(=S)(OCC)Oc1nc(Cl)n(C(C)C)n1
ASSIGNED_CLASS: F

MOLECULE: COc1cc(OC)nc(NC(=O)NS(=O)(=O)c2ncccc2OCC(F)(F)F)n1
ASSIGNED_CLASS: F

MOLECULE: CCOP(=O)(OCC)Oc1nc(Cl)c(Cl)cc1Cl
ASSIGNED_CLASS: T

MOLECULE: CCN(CC)c1nc(C)cc(OP(=S)(OC)OC)n1
ASSIGNED_CLASS: T

MOLECULE: COc1cc(Cl)c(OC)cc1Cl
ASSIGNED_CLASS: F

MOLECULE: O=c1n(Cl)c(=O)n(Cl)c(=O)n1Cl
ASSIGNED_CLASS: F

MOLECULE: CC(C)Nc1nc(Cl)nc(NC(C)C)n1
ASSIGNED_CLASS: F

MOLECULE: C=CCOC(=O)C(C)(C)OC(=O)c1cc(-n2c(=O)cc(C(F)(F)F)n(C)c2=O)ccc1Cl
ASSIGNED_CLASS: F

MOLECULE: CCC(C)n1c(=O)[nH]c(C)c(Br)c1=O (stereo not drawn)
ASSIGNED_CLASS: F

MOLECULE: Cc1nc(N(C)C)nc(OC(=O)N(C)C)c1C
ASSIGNED_CLASS: F

MOLECULE: O=P(O)(O)CCCl
ASSIGNED_CLASS: F

MOLECULE: CCSC(=O)N1CCCCCC1
ASSIGNED_CLASS: F

---

Assay: BSK_SAg_PBMCCytotoxicity: PBMC Cytotoxicity Assessment in the BioMAP Diversity Plus: SAg Assay (AID 2283093);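 also: PBMC viability measured as Alamar Blue reduction fluorescence at 546/580 nm; fitted both ways against DMSO so a hit may be loss or gain of signal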;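 as to AC50: PBMC superantigen activated with SEB plus TSST-1 one hour after compound addition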
Details: primary human HUVEC with PBMC
Activity calls are given as the source filed them. Rule for the calls: active = hit-call score of the fitted dose curve at least 0.9, where 1 is the maximum; inactive = score below 0.9.
PARAMETER_MEASURED: AC50

COMPOUND: Clc1cccc(C(Cl)(Cl)Cl)n1
RESULT: inactive

COMPOUND: COC(=O)c1c(C(F)F)nc(C(F)(F)F)c(C2=NCCS2)c1CC(C)C
RESULT: 12.1 µM (active)

COMPOUND: CS(=O)(=O)c1cc(C(F)(F)F)ccc1C(=O)c1cnoc1C1CC1
RESULT: inactive

COMPOUND: CCOc1cc(C(C)(C)C)ccc1C1COC(c2c(F)cccc2F)=N1 (configuration not stated)
RESULT: 28.9 µM (active)

COMPOUND: CC1(C)CCC(=Cc2ccc(Cl)cc2)C1(O)Cn1cncn1 (configuration not stated)
RESULT: inactive

COMPOUND: CCCCC(O)(Cn1cncn1)c1ccc(Cl)cc1Cl (configuration not stated)
RESULT: inactive

COMPOUND: O=c1n(Cl)c(=O)n(Cl)c(=O)n1Cl
RESULT: inactive

COMPOUND: COCC(=O)N(c1c(C)cccc1C)C(C)C(=O)OC (configuration not stated)
RESULT: inactive

COMPOUND: CCNC(=O)NC(=O)C(C#N)=NOC
RESULT: inactive

COMPOUND: CC(C)(C)C(=O)C(Oc1ccc(Cl)cc1)n1cncn1 (configuration not stated)
RESULT: inactive

COMPOUND: COP(=S)(OC)Oc1ccc([N+](=O)[O-])c(C)c1
RESULT: inactive

COMPOUND: CC(C)NC(=O)N1CC(=O)N(c2cc(Cl)cc(Cl)c2)C1=O
RESULT: inactive
